From: patent EP4678644A1

# Target of assay: PDE4B2 (Homo sapiens)
# Construct: expressed in transfected cells; host or cells: Flp-In-293 (Flpin-293-PDE4B2 [sic])
# Assay name: PDE4B2 enzyme experiment (AMP-glo, cAMP substrate)
# Format: biochemical
Assay metric: IC50 (nM)
// return numeric value only (unit: nM, not printed)

Guide cases for IC50, answers given:
| Compound | Target of assay | Reading |
| --- | --- | --- |
| [O-][S+]1CCc2nc(N3CCc4cc(Cl)ncc4C3)nc(NC3(CO)CCC3)c21 (stereo not drawn) | PDE4B2 (Homo sapiens) | 1.82 |
| [O-][S+]1CCc2nc(N3CC[C@@H]4c5ccccc5OC[C@H]4C3)nc(NC3(CO)CCC3)c21 (stereo partly drawn) | PDE4B2 (Homo sapiens) | 0.621 |

Let us move to another entry and its IC50.
I have this compound here, [O-][S+]1CCc2nc(N3CCc4cc5c(cc4C3)OCO5)nc(NC3(CO)CCC3)c21 (stereo not drawn) , and I need its recorded IC50. 1.32

* * *

# Target of assay: PDE4B2 (Homo sapiens, UniProt Q07343)
# Construct: expressed in transfected cells; host or cells: Flp-In-293 (Flpin-293-PDE4B2 [sic])
# Sequence (Q07343 1-564 isoform Q07343-2): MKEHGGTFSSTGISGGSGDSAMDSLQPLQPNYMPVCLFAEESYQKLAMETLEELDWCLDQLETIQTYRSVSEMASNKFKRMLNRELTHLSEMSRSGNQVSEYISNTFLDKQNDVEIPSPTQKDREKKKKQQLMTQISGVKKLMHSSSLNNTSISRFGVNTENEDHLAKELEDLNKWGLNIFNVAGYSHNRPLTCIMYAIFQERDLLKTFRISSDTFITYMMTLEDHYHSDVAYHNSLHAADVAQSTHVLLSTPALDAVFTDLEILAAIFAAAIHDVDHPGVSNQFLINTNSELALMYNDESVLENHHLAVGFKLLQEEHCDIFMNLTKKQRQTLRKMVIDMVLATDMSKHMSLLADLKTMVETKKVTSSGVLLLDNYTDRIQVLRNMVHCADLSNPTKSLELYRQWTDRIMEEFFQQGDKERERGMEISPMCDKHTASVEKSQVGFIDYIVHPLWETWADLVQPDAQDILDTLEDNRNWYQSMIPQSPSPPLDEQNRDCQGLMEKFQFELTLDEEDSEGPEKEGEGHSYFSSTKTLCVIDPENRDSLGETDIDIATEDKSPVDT
# Assay name: PDE4B2 cell experiment (cAMP, Eu-cAMP tracer / Ulight-anti-cAMP)
# Assay type: cell-based
# Test settings: Flpin-293-PDE4B2 cells, 10 nM
# if value of Cell Inhibition% @10 nM reaches 50%, tag true (1); if it stays below, tag false (0)

Illustrative cases are given below, each with its answer.
| Compound | Cat |
| --- | --- |
| NC(=O)c1ccc2c(c1)CCN(c1nc3c(c(NC4(CO)CCC4)n1)[S+]([O-])CC3)C2 (centres unmarked) | false (0) |
| [O-][S+]1CCc2nc(N3CC[C@@H]4c5cccc(Cl)c5OC[C@H]4C3)nc(NC3(CO)CCC3)c21 (some centres unmarked) | true (1) |
| [O-][S+]1CCc2nc(N3CCc4cc(I)ccc4C3)nc(NC3(CO)CCC3)c21 (centres unmarked) | false (0) |
| [O-][S+]1CCc2nc(N3CCC4=C(COc5ccccc54)C3)nc(NC3(CO)CCC3)c21 (centres unmarked) | false (0) |
| Cn1nc(Cl)c2c3c(cnc21)CN(c1nc2c(c(NC4(CO)CCC4)n1)[S+]([O-])CC2)CC3 (centres unmarked) | false (0) |

Evaluate COc1ccc2c(c1)OC[C@H]1CN(c3nc4c(c(NC5(CO)CCC5)n3)[S+]([O-])CC4)CC[C@H]21 (some centres unmarked) : Cell Inhibition% @10 nM at minimum 50%? true (1)

Evaluate [O-][S+]1CCc2nc(N3CCc4ccc(Br)cc4CC3)nc(NC3(CO)CCC3)c21 (centres unmarked) : Cell Inhibition% @10 nM at minimum 50%? true (1)

Evaluate COc1ccc2sc3c(c2c1)CCN(c1nc2c(c(NC4(CO)CCC4)n1)[S+]([O-])CC2)C3 (centres unmarked) : Cell Inhibition% @10 nM at minimum 50%? true (1)
